Known self-cleavage of a selection of variants
B1: HDV Ribozyme (parent)
chain: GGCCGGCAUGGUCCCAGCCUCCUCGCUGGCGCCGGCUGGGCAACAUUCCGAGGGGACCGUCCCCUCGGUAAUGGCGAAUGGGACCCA

# Variants of: B1
# ASSAY NAME: self-cleavage, relative activity (ratio to wild type); higher = more cleavage; co-transcriptional

Some solved cases for reference:
MUTATION SPEC	REPORTED ENDPOINT	MEASURED RESULT
C41U G55C	self-cleavage	0.885
C14G U47C	self-cleavage	0.604
U46A C57A	self-cleavage	0.851
C58A C75U	self-cleavage	0.158
C30U U37G	self-cleavage	0

I have this variant here, G50C C66G , and I need its recorded self-cleavage.
0.912

Also G52A C63U ?
0.969

Entry to check: C3U U46G
0.446

Would you mind doing G39A G82C as well?
0.128

Would you kindly repeat that for U37A G38A ?
0.086

What would you report for U47G A77U ?
0.665

Also, C4A G10U please.
0.0733

Now consider C32G A70U and answer again.
0.032

What about C13U G50A ?
0.439
